Where do these numbers come from? They come from patent US9695155B2.

Reported Plant response rating, Corn values for a set of compounds
test system: corn; assay: Test C postemergence; assay type: in vivo, Zea mays; details: Postemergence, 62 g ai/ha; scale 0 to 100 (0 no effect, 100 complete control)
measuredEndpoint: Plant response rating, Corn

{"molSmiles": "Clc1cnc(Oc2cccc(Br)c2-n2cc(Br)cn2)nc1", "reported": 10}
{"molSmiles": "CCOc1cnn(-c2c(C#N)cccc2Oc2ncc(Cl)cn2)c1", "reported": 5}
{"molSmiles": "FC(F)(F)c1cnn(-c2ccccc2Oc2ncc(Cl)cn2)c1", "reported": 5}
{"molSmiles": "N#Cc1cccc(Oc2ncc(F)cn2)c1-n1cc(I)cn1", "reported": 5}
{"molSmiles": "CCCOc1cnn(-c2c(C#N)cccc2Oc2ncc(Cl)cn2)c1", "reported": 10}
{"molSmiles": "N#Cc1cn(-c2c(Br)cccc2Oc2ncc(Cl)cn2)nn1", "reported": 5}

###

system: large (Lg) crabgrass; experiment: Test A postemergence; type: in vivo, Digitaria sanguinalis; conditions: Digitaria sanguinalis, post-emergence, 240 h, 125 g ai/ha, 0 to 100 scale where 0 is no effect and 100 is complete control, read-out: Plant response rating, Crabgrass, Large
Reported pest or weed control at 125 g/ha values for a set of compounds

{"compound": "Clc1cnc(Oc2ccccc2-n2cc(Br)cn2)nc1 [Compound 7]", "targetSystem": "large (Lg) crabgrass", "pest or weed control at 125 g/ha [%]": 80}
{"compound": "N#Cc1cccc(Oc2ncc(Br)cn2)c1-n1cc(C(F)(F)F)cn1 [Compound 59]", "targetSystem": "large (Lg) crabgrass", "pest or weed control at 125 g/ha [%]": 100}
{"compound": "FC(F)(F)c1ccn(-c2ccccc2Oc2ncc(Cl)cn2)n1 [Compound 2]", "targetSystem": "large (Lg) crabgrass", "pest or weed control at 125 g/ha [%]": 20}
{"compound": "N#Cc1cccc(Oc2ncc(Cl)cn2)c1-n1cc(C(F)(F)F)cn1 [Compound 58]", "targetSystem": "large (Lg) crabgrass", "pest or weed control at 125 g/ha [%]": 100}

###

tested on: bromegrass, downy; assay: Test D preemergence; type: in vivo, Bromus tectorum; details: Bromus tectorum, pre-emergence, 125 g ai/ha, scale 0-100, read-out: Plant response rating, Bromegrass, Downy
Reported pest or weed control at 125 g/ha values for a set of compounds

{"compound": "FC(F)(F)c1cnn(-c2ccccc2Oc2ncc(Br)cn2)c1 [Compound 18]", "pest or weed control at 125 g/ha": "10%"}
{"compound": "FC(F)(F)c1cn(-c2ccccc2Oc2ncc(Cl)cn2)nn1 [Compound 166]", "pest or weed control at 125 g/ha": "50%"}
{"compound": "N#Cc1cccc(Oc2ncc(Cl)cn2)c1-n1cc(C(F)(F)F)cn1 [Compound 58]", "pest or weed control at 125 g/ha": "35%"}
{"compound": "Fc1cccc(Oc2ncc(Cl)cn2)c1-n1cc(Br)cn1 [Compound 178]", "pest or weed control at 125 g/ha": "10%"}
{"compound": "FC(F)(F)COc1cnn(-c2ccccc2Oc2ncc(Cl)cn2)c1 [Compound 138]", "pest or weed control at 125 g/ha": "10%"}

###

tested on: kochia; experiment: Test A preemergence; format: in vivo, Kochia scoparia; conditions: 125 g ai/ha, 0 to 100 scale where 0 is no effect and 100 is complete control

{"compound": "N#Cc1cnn(-c2c(C#N)cccc2Oc2ncc(I)cn2)c1 [Compound 91]", "targetSystem": "kochia", "Plant response rating, Kochia": 30}
{"compound": "N#Cc1cccc(Oc2ncc(F)cn2)c1-n1cc(I)cn1 [Compound 86]", "targetSystem": "kochia", "Plant response rating, Kochia": 100}
{"compound": "Clc1cnc(Oc2cccc(Br)c2-n2cc(Br)nn2)nc1 [Compound 129]", "targetSystem": "kochia", "Plant response rating, Kochia": 100}
{"compound": "CC(C)Cc1cn(-c2c(F)cccc2Oc2ncc(Cl)cn2)nn1 [Compound 107]", "targetSystem": "kochia", "Plant response rating, Kochia": 0}

###

Reported Plant response rating, Foxtail, Giant values for a set of molecules
system: giant foxtail; assay: Test A postemergence; assay type: in vivo, Setaria faberii; settings: 125 g ai/ha, 0 to 100 scale, 0 no effect, 100 complete control

{"molecule": "FC(F)c1cccc(Oc2ncc(Cl)cn2)c1-n1cncc1Br [Compound 259]", "targetSystem": "giant foxtail", "Plant response rating, Foxtail, Giant": 40}
{"molecule": "Fc1cccc(Oc2ncc(Cl)cn2)c1-n1cc(OCC(F)(F)F)cn1 [Compound 270]", "targetSystem": "giant foxtail", "Plant response rating, Foxtail, Giant": 90}
{"molecule": "Cc1cc(C)n(-c2ccccc2Oc2ncc(Cl)cn2)n1 [Compound 264]", "targetSystem": "giant foxtail", "Plant response rating, Foxtail, Giant": 0}
{"molecule": "Fc1cnc(Oc2ccccc2-n2cc(OCC(F)(F)F)cn2)nc1 [Compound 241]", "targetSystem": "giant foxtail", "Plant response rating, Foxtail, Giant": 20}
{"molecule": "Brc1cnn(-c2ccccc2Oc2ncccn2)c1 [Compound 275]", "targetSystem": "giant foxtail", "Plant response rating, Foxtail, Giant": 0}
{"molecule": "NC(=O)c1cccc(Oc2ncc(Cl)cn2)c1-n1cc(C(F)(F)F)cn1 [Compound 278]", "targetSystem": "giant foxtail", "Plant response rating, Foxtail, Giant": 0}
{"molecule": "Clc1cnc(Oc2ccccc2-n2cccc2)nc1 [Compound 269]", "targetSystem": "giant foxtail", "Plant response rating, Foxtail, Giant": 0}

###

system: barnyardgrass; assay: Test A postemergence; assay type: in vivo, Echinochloa crus-galli; details: 1000 g ai/ha, 0 to 100 scale, 0 no effect, 100 complete control
Respond with MET for Plant response rating, Barnyardgrass values of 70 and above, NOT MET for values below.

{"compound": "CC(=NO)c1cn(-c2c(Br)cccc2Oc2ncc(Cl)cn2)nn1 [Compound 115]", "labelClass": "MET"}
{"compound": "N#CCOc1cccc(Oc2ncc(Cl)cn2)c1-n1cc(Br)cn1 [Compound 70]", "labelClass": "MET"}
{"compound": "Fc1cc(F)cc(-c2cn(-c3c(Br)cccc3Oc3ncc(Cl)cn3)nn2)c1 [Compound 303]", "labelClass": "NOT MET"}
{"compound": "COc1ccc(I)c(-n2cc(Br)cn2)c1Oc1ncc(Cl)cn1 [Compound 207]", "labelClass": "NOT MET"}

###

test system: pigweed; assay: Test A preemergence; type: in vivo, Amaranthus retroflexus; conditions: 500 g ai/ha, 0 to 100 scale, 0 no effect, 100 complete control, approx. 10 days

{"compound": "O=Cc1cccc(Oc2ncc(F)cn2)c1-n1cc(Cl)cn1 [Compound 93]", "targetSystem": "pigweed", "Pigweed plant response rating": 30}
{"compound": "Cc1ccc(Oc2ncc(Cl)cn2)c(-n2cc(Br)cn2)c1 [Compound 40]", "targetSystem": "pigweed", "Pigweed plant response rating": 50}
{"compound": "N#Cc1cccc(Oc2ncc(Cl)cn2)c1-n1cnc(Br)c1 [Compound 74]", "targetSystem": "pigweed", "Pigweed plant response rating": 100}

###

system: giant foxtail; assay: Test A postemergence; type: in vivo, Setaria faberii; conditions: 500 g ai/ha, 0 to 100 scale where 0 is no effect and 100 is complete control
measuredEndpoint: Plant response rating, Foxtail, Giant

{"molSmiles": "COc1cnn(-c2c(C#N)cccc2Oc2ncc(Cl)cn2)c1", "measuredEndpoint": "Plant response rating, Foxtail, Giant", "reported": 100}
{"molSmiles": "N#Cc1cnn(-c2c(C#N)cccc2Oc2ncc(F)cn2)c1", "measuredEndpoint": "Plant response rating, Foxtail, Giant", "reported": 90}
{"molSmiles": "O=Cc1cccc(Oc2ncc(Cl)cn2)c1-n1cc(Cl)cn1", "measuredEndpoint": "Plant response rating, Foxtail, Giant", "reported": 0}
{"molSmiles": "Cc1ccc(Oc2ncc(Cl)cn2)c(-n2cc(Br)cn2)c1Br", "measuredEndpoint": "Plant response rating, Foxtail, Giant", "reported": 30}
{"molSmiles": "C=C(C)c1cccc(Oc2ncc(Cl)cn2)c1-n1cc(Br)cn1", "measuredEndpoint": "Plant response rating, Foxtail, Giant", "reported": 80}
{"molSmiles": "FC(F)(F)c1cnn(-c2c(Cl)cccc2Oc2ncc(Br)cn2)c1", "measuredEndpoint": "Plant response rating, Foxtail, Giant", "reported": 90}
{"molSmiles": "FC(F)c1cnn(-c2ccccc2Oc2ncc(Br)cn2)c1", "measuredEndpoint": "Plant response rating, Foxtail, Giant", "reported": 90}
{"molSmiles": "O=[N+]([O-])c1cnc(Oc2ccccc2-n2cc(Br)cn2)nc1", "measuredEndpoint": "Plant response rating, Foxtail, Giant", "reported": 0}
{"molSmiles": "Cc1cnc(Oc2cccc(C#N)c2-n2cc(I)cn2)nc1", "measuredEndpoint": "Plant response rating, Foxtail, Giant", "reported": 90}
